# Test system: LU99 MTAP(-/-)deleted cells
# Assay method text: Inhibitory activity on proliferation of LU99 MTAP(-/-)deleted cells (Cell-Titer Glo)
# Format: cell-based
# Assay conditions: Homo sapiens, Lu-99, 144 h, incubated 6 d, 0-1,000 nM
// reported IC50 per item
Property measured: IC50 (nM)

compound="CN(C(=O)c1ccc2nc(N)c3cnn(C)c3c2c1)C1COC(C)(C)c2cc(-c3cccc4c3cnn4C)ccc21 (stereo not shown)" recorded_result=7.9
compound=CN(C(=O)c1ccc2nc(N)c3cnn(C)c3c2c1)[C@@H]1COC2(CCCC2)c2cc(C(F)(F)F)ccc21 recorded_result=5.9
compound=CN(C(=O)c1ccc2nc(N)c3c(cnn3C)c2c1)[C@@H]1COC(C)(C)c2cc(C(F)(F)F)ccc21 recorded_result=33.7
compound="CN(C(=O)c1cc2c(cc1F)nc(N)c1cnn(C)c12)C1COC(C)(C)c2cc(-c3ccnn3C)ccc21 (stereo not shown)" recorded_result=5.9

====

# Test system: LU99 MTAP(-/-)deleted cells
# Assay method text: Inhibitory activity on proliferation of LU99 MTAP(-/-)deleted cells (Cell-Titer Glo)
# Assay type: cell-based
# Assay conditions: Homo sapiens, Lu-99, 144 h, incubated 6 d, 0-1,000 nM
Property measured: IC50 (nM)

compound=CN(C(=O)c1cc2c3c(c(N)nc2cn1)COC3)[C@@H]1COC(C)(C)c2cc(C(F)(F)F)ccc21 property_measured=IC50 value_relation_sign== recorded_result=14.9
compound=CN(C(=O)c1cc2c(cn1)nc(N)c1cnn(C)c12)[C@H]1COC(C)(C)c2cc(C(F)(F)F)ccc21 property_measured=IC50 value_relation_sign== recorded_result=51.9
compound=CN(C(=O)c1ccc2nc(N)c3cnn(C)c3c2c1)[C@H]1COC(C)(C)c2cc(C(F)(F)F)ccc21 property_measured=IC50 value_relation_sign== recorded_result=174
compound=CN(C(=O)c1ccc2nc(N)c3cnn(C)c3c2c1)[C@@H]1COC(C)(C)c2cc(N3CCn4cncc4C3)ccc21 property_measured=IC50 value_relation_sign== recorded_result=31
compound=CN(C(=O)c1ccc2nc(N)c3cnn(C)c3c2c1)[C@@H]1COC(C)(C)c2cc(-c3cncc(C(F)(F)F)c3)ccc21 property_measured=IC50 value_relation_sign== recorded_result=6.1
compound="CN(C(=O)c1cc2c3c(c(N)nc2cn1)COC3)C1COC2(CC2)c2cc(C(F)(F)F)ccc21 (stereo not shown)" property_measured=IC50 value_relation_sign== recorded_result=21.2
compound="CN(C(=O)c1ccc2nc(N)c3nsnc3c2c1)C1COC(C)(C)c2cc(C(F)(F)F)ccc21 (stereo not shown)" property_measured=IC50 value_relation_sign=> recorded_result=3000

====

# System: HCT-116 wild-type cells
# Assay method text: Inhibitory activity on proliferation of HCT-116 wild-type cells (Cell-Titer Glo)
# Assay type: cell-based
# Assay conditions: Homo sapiens, 144 h, incubated 6 d, 0-10,000 nM
// reported IC50 per item
Property measured: IC50 (nM)

compound="CN(C(=O)c1ccc2nc(N)c3c(c2c1)CCCC3)C1COC(C)(C)c2cc(C(F)(F)F)ccc21 (stereo not drawn) [Example 19]" property_measured=IC50 unit_symbol=nM value_relation_sign== recorded_result=7210
compound="CN(C(=O)c1ccc2nc(N)c3cnn(C)c3c2c1)[C@H]1COC(C)(C)c2cc(C(F)(F)F)ccc21 [Example 17]" property_measured=IC50 unit_symbol=nM value_relation_sign== recorded_result=5550
compound="CN(C(=O)c1ccc2nc(N)c3cnn(C)c3c2c1)[C@@H]1COC(C)(C)c2nc(N3CCOCC3)ccc21 [Example 54]" property_measured=IC50 unit_symbol=nM value_relation_sign== recorded_result=1810
compound="CN(C(=O)c1ccc2nc(N)c3ccncc3c2c1)C1COC(C)(C)c2cc(C(F)(F)F)ccc21 (stereo not drawn) [Example 22]" property_measured=IC50 unit_symbol=nM value_relation_sign== recorded_result=1250
compound="CN(C(=O)c1ccc2nc(N)c3cnccc3c2c1)[C@@H]1COC(C)(C)c2cc(C(F)(F)F)ccc21 [Example 37]" property_measured=IC50 unit_symbol=nM value_relation_sign== recorded_result=4100
compound="CN(C(=O)c1cc2c(cn1)nc(N)c1cnn(C)c12)[C@H]1COC(C)(C)c2cc(C(F)(F)F)ccc21 [Example 27]" property_measured=IC50 unit_symbol=nM value_relation_sign=> recorded_result=10000
